testName: chemical genetic growth profiling, strain panel (AID 1159580);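 further: tested at 20 µM; growth read once vehicle control cultures reached saturation at 30 °C; 1 = growth at the plate median or of vehicle wells; lower values mean less growth of the strain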
testContext: S. cerevisiae deletion strains, growth OD, locus YOR080W, strain dia2
Hit rate of the full screen: of about 5,500 compounds, about 2,000 (36%) were called active. Not shown: some 18% with an inconclusive outcome. No stated cut-off is given here; in the data, active means normalized growth mostly below about 0.91 (no sharp cut-off); inconclusive means no clear call, values can overlap the other calls; inactive means mostly above about 0.92. This is one part of the list.
Return exactly one item of active, inactive

Record excerpt, results attached:
>>> qualitativelabel("N#Cc1nn(-c2c(Cl)cc(C(F)(F)F)cc2Cl)c(N)c1S(=O)C(F)(F)F (stereo not given)")
"inactive"
>>> qualitativelabel("COc1c2ccoc2cc2oc(=O)ccc12")
"inactive"
>>> qualitativelabel("CC1CC[C@@]2(OC1)O[C@H]1CC3C4CC[C@@H]5C[C@@H](O)CC[C@]5(C)C4CC[C@]3(C)[C@H]1[C@@H]2C (stereo not given in full)")
"inactive"
>>> qualitativelabel("COc1ccc2ccc(=O)oc2c1")
"inactive"
>>> qualitativelabel("CC1CC[C@]2(NC1)O[C@H]1CC3C4CC[C@H]5C[C@@H](O)CC[C@]5(C)C4CC[C@]3(C)[C@H]1[C@@H]2C (stereo not given in full)")
"active"

Task: Query: recorded result category for C[C@@H]1CC[C@@]2(OC1)OC1CC3C4CC=C5C[C@@H](O)CC[C@]5(C)C4CC[C@]3(C)C1[C@@H]2C (stereo not given in full) in this test
Output: inactive

Task: Query: recorded result category for COc1ccc2c(c1)CCC1C2CC[C@@]2(C)C1CC[C@@H]2O (stereo not given in full) in this test
Output: inactive

Task: Query: recorded result category for "O=c1ccc2c(O)c3ccoc3cc2o1" in this test
Output: inactive

Task: Query: recorded result category for "CC(C)[N+](C)(CCC(C(N)=O)(c1ccccc1)c1ccccc1)C(C)C" in this test
Output: inactive

Task: Query: recorded result category for "Cc1[nH]ccc2c1[nH]c1cc(=O)ccc12" in this test
Output: inactive

----------
testName: chemical genetic growth profiling, strain panel (AID 1159580);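 further: tested at 20 µM; growth read once vehicle control cultures reached saturation at 30 °C; 1 = growth at the plate median or of vehicle wells; lower values mean less growth of the strain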
testContext: S. cerevisiae deletion strains, growth OD, locus YDL192W, strain arf1, hits give low values
Among all 5,500 compounds or so, about 2,000 (36%) were called active. About 18% were inconclusive and are not listed. The list shows a part of the results.
As shown below, each of these molecules has a reported normalized growth value.
API note: the answer field is a bare number with no unit suffix.

>>> observed("CC1(C)C2CC(=O)[C@]3(C)C(CC[C@@]4(C)[C@H](c5ccoc5)OC(=O)C5OC543)[C@@]2(C)[C@@H](O)C[C@H]1O (stereo not given in full)")
1.01
>>> observed("CC1(C)C(=O)C=C[C@@]2(C)C1C=C[C@]1(C)C2CC[C@@]2(C)[C@H](c3ccoc3)OC(=O)C3OC321 (stereo not given in full)")
0.94
>>> observed("Cc1cc(OC(=O)c2c(C)cc(OC(=O)c3c(C)cc(O)cc3O)cc2O)cc(O)c1C(=O)O")
0.979
>>> observed("CC(C)c1c(O)c(-c2cc3c(c(C(C)C)c2O)CCC2C(C)(C)CCC[C@]32C)cc2c1CCC1C(C)(C)CCC[C@]21C (stereo not given in full)")
1.03
>>> observed("CCOC(=O)c1c(C)cc(O)cc1O")
0.896

The molecule listed as CC(=O)O[C@@H]1CC(=O)[C@@]2(C)C(CC(=O)[C@]3(C)C2CC[C@@]2(C)[C@H](c4ccoc4)OC(=O)C4OC423)C1(C)C (stereo not given in full) shows normalized growth equal to 1.01

The molecule listed as CC1(C)C(=O)C=C[C@@]2(C)C1CC(=O)[C@]1(C)C2CC[C@@]2(C)[C@H](c3ccoc3)OC(=O)[C@H]3O[C@]321 (stereo not given in full) shows normalized growth equal to 1.01

The molecule listed as "COc1ccccc1/C=C\C(=O)O" shows normalized growth equal to 1.04

The molecule listed as "Cc1[nH]ccc2c1[nH]c1cc(=O)ccc12" shows normalized growth equal to 0.991
